The entries below come with measured double positive events values attached.
assay: inhibitors of CD8+ T cell-vesicle binding, pilot screen, LFA-1/ICAM-1 modulator project, MLPCN validation set, flow cytometry (AID 2523)
condition-details: 2C mouse CD8+ T cells, at 7 µM, stronger effect = lower value; measured here: CD8+/vesicle+ event percentage
# output: bare number, implied unit %

Examples from the recorded data:
compound	double positive events, %
COc1cccc(N2CC(O)=C(c3nc4ccccc4c(=O)[nH]3)C2=N)c1	58.4
Cn1c2ccc(CC(=O)O)cc2c2cc(CC(=O)O)ccc21	61.4
CC(=O)NCCCCCCNC(C)=O	55.5
O=C1C2C3C=CC(C4CC34)C2C(=O)N1/N=C/c1ccc(-c2ccc([N+](=O)[O-])cc2)o1 (configuration not stated)	57.9

double positive events for C[C@H](NC(=O)OC(C)(C)C)C(=O)NCC1CCC(C(=O)O)CC1 (some centres not stated) is 58

double positive events for NC(=O)N1c2ccccc2C=Cc2ccccc21 is 56

double positive events for CCC1(c2ccccc2)C(=O)NCNC1=O is 61.9

double positive events for CC1CNCCN1S(=O)(=O)c1cccc2cnccc12 (configuration not stated) is 62.9

double positive events for OCCN(CCO)c1ccc2ccccc2c1 is 66.7

double positive events for COC(=O)c1cc(C(=O)NCCC(C)C)cc([N+](=O)[O-])c1 is 57.8

double positive events for O=C(CCNNC(=O)c1ccncc1)NCc1ccccc1 is 66.8

double positive events for CCC(C)NCCOCCOc1ccc(Cl)c2ccccc12 (configuration not stated) is 56.7

meta.source: PubChem BioAssay
